# methodDescription: Cytotoxicity assay in MT-4 cells
# Assay type: cell-based
# testConditions: human; uninfected MT-4 cells, 5 days incubation, Cell Titer Glo; read-out: MT4 CC50
Items are presented alongside their recorded CC50 at 5 days.
The reply should be a number in µM, with the unit left off.

givensmiles=CC1=NO[C@@]2(CC[C@H](C)N3C[C@H]2n2cc(C(=O)NCc4ccc(F)cc4F)c(=O)c(OCOC(=O)OCCC(C)C)c2C3=O)C1 readoutnumber=16.9

stdin: # lookup: CC50 at 5 days of CC(=O)Oc1c2n(cc(C(=O)NCc3ccc(F)cc3F)c1=O)[C@@H]1CN(C2=O)[C@@H](C)CC[C@]12CC(C)=NO2
stdout: 11.2

stdin: Likewise for COC1=NO[C@@]2(CC[C@H](C)N3C[C@H]2n2cc(C(=O)NCc4ccc(F)cc4F)c(=O)c(OC(=O)OCCCCCCCC(C)C)c2C3=O)C1 ?
stdout: 40.6

stdin: Likewise for COC1=NO[C@@]2(CC[C@H](C)N3C[C@H]2n2cc(C(=O)NCc4ccc(F)cc4F)c(=O)c(OC(=O)CC(C)C)c2C3=O)C1 ?
stdout: 19.4

stdin: Likewise for CC/C=C\C/C=C\C/C=C\C/C=C\C/C=C\CCCC(=O)Oc1c2n(cc(C(=O)NCc3ccc(F)cc3F)c1=O)[C@@H]1CN(C2=O)[C@@H](C)CC[C@]12CC(OC)=NO2 ?
stdout: 42.2

stdin: Likewise for CC1=NO[C@@]2(CC[C@H](C)N3C[C@H]2n2cc(C(=O)NCc4ccc(F)cc4F)c(=O)c(OC(=O)CCC4CCCC4)c2C3=O)C1 ?
stdout: 15.4
